Read-out record for human CB1 receptor (Homo sapiens (Human)): IC50
Give just the numeric value; µM need not be written.

{"compound": "CC(C)=CCc1c(-c2ccc(O)cc2O)oc2c(C3C=C(C)CC(c4ccc(O)cc4O)C3C(=O)c3ccc(O)cc3O)c(O)cc(O)c2c1=O (centres unmarked)", "IC50, µM": 10.1}

We now examine a further compound.
Measured on human CB1 receptor (Homo sapiens (Human)), CC(C)=CCC12Oc3c(c(O)cc(O)c3C3C=C(C)CC(c4ccc(O)cc4O)C3C(=O)c3ccc(O)cc3O)C(=O)C1(O)Oc1cc(O)ccc12 (centres unmarked) has a documented IC50 of 3.5

----------
Each entry below lists one item and its recorded EC50 value.
# targetEntity: human CB1 receptor (Homo sapiens (Human))
# Sequence (P21554 whole entry): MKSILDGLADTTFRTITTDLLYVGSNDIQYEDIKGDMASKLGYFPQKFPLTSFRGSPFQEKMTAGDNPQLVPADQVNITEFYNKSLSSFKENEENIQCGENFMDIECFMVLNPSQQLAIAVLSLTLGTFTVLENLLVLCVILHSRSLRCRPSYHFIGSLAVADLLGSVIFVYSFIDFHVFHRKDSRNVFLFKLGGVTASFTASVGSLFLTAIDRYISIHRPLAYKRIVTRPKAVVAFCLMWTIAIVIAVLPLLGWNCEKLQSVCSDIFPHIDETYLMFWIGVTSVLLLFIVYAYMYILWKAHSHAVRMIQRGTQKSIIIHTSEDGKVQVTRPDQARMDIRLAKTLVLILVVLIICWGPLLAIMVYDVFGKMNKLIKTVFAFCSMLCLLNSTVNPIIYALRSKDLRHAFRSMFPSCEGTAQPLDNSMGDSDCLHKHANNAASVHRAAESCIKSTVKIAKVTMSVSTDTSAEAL
# testDetails: CB1 Agonist Effect GPCR Functional Assay (cAMP)
The figure you give is taken to be in µM; do not add the unit.

{"compound": "CC(C)=CCc1c(-c2ccc(O)cc2O)oc2c(C3C=C(C)CC(c4ccc(O)cc4O)C3C(=O)c3ccc(O)cc3O)c(O)cc(O)c2c1=O (centres unmarked)", "EC50 [µM]": 85}

// sample CC(C)=CCC12Oc3c(c(O)cc(O)c3C3C=C(C)CC(c4ccc(O)cc4O)C3C(=O)c3ccc(O)cc3O)C(=O)C1(O)Oc1cc(O)ccc12 (centres unmarked) , its EC50 was 31
